- system_name: αVβ3 headpiece (soluble, disulfide-linked: αv headpiece residues 1-594 with M400C and β3 headpiece residues 1-472 with Q267C) (UniProt P06756)
- Sequence (P06756 other isoform, or with tags, fused parts or gaps M400C Q267C, chain 1 of 2): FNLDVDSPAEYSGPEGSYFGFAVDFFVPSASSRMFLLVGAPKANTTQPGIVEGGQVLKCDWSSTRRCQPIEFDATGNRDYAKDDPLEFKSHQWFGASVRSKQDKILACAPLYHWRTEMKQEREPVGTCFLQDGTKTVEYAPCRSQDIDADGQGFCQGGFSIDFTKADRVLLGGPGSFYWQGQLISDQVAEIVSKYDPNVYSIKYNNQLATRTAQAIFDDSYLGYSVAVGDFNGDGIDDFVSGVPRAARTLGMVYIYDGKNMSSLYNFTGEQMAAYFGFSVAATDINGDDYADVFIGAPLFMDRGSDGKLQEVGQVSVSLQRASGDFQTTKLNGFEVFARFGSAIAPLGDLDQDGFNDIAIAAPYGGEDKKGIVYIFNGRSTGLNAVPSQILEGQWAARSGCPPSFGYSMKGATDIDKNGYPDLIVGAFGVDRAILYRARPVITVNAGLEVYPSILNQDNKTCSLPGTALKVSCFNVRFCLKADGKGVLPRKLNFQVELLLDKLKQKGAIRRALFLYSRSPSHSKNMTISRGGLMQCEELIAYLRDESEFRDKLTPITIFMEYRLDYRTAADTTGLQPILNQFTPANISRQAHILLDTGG
- Sequence (P05106 27-498 Q293C, chain 2 of 2, further chain): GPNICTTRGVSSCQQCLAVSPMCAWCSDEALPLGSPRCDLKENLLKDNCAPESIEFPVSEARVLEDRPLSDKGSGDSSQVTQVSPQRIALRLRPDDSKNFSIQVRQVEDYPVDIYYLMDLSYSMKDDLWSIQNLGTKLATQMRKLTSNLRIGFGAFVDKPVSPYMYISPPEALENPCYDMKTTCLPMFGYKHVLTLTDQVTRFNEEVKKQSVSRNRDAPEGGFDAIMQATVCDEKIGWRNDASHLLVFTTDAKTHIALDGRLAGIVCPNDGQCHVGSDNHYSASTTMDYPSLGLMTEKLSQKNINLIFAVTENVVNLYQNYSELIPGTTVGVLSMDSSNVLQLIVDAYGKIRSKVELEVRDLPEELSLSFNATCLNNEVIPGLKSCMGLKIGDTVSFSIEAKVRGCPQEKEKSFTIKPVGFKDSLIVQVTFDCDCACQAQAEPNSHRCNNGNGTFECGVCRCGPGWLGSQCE
- test_summary: fluorescence anisotropy competition
pKd: −log10 of the molar value.

substance: GRGDSP (SEQ ID NO: 72) peptide of fibronectin
pKd: 5.80

###

- system_name: αVβ6 headpiece (soluble, disulfide-linked: αv headpiece residues 1-594 with M400C and β6 headpiece residues 1-474 with I270C)
- test_summary: fluorescence anisotropy; pH 6.0
parameter_measured: Kd

substance: FITC-GRGDLGRL (SEQ ID NO: 68), FITC-pro-TGF-β3 peptide
experimental_value: 2000 nM
